pIC50 reference
test_details: Inhibition of alpha glucosidase
property_measured: pIC50

compound="O=S(=O)([O-])OC[C@H](O)C[S@+]1C[C@@H](O)[C@H](O)[C@H]1CO [SALAPRINOL]" qual== readout_value=3
compound=O=S(=O)([O-])O[C@@H](CO)CC[S@+]1C[C@@H](O)[C@H](O)[C@H]1CO qual=< readout_value=3
compound=O=S(=O)([O-])OCCC[S@+]1C[C@@H](O)[C@H](O)[C@H]1CO qual=< readout_value=3
compound="[O-][C@@H](CO)[C@H](O)C[S@+]1C[C@@H](O)[C@H](O)[C@H]1CO [NEOSALACINOL]" qual== readout_value=5.1
compound=[O-]C[C@@H](O)[C@@H](O)C[S@+]1C[C@@H](O)[C@H](O)[C@H]1CO qual=< readout_value=3
compound=[O-]CC[C@H](O)C[S@+]1C[C@@H](O)[C@H](O)[C@H]1CO qual== readout_value=3.94
compound=O=S(=O)([O-])O[C@H](CO)[C@@H](O)C[S@+]1C[C@@H](O)[C@H](O)[C@H]1CO qual=< readout_value=3
compound="O=S(=O)([O-])O[C@@H](CO)[C@H](O)C[S@+]1C[C@@H](O)[C@H](O)[C@H]1CO [SALACINOL]" qual== readout_value=5.28

The reported numbers originate from ChEMBL document CHEMBL1208741.
